Some compounds, each annotated with its measured growth.
# System: LOX IMVI melanoma
# PROCEDURE TEXT: NCI-60 one-dose screen, 48 h (100 = growth as untreated, 0 = no growth, -100 = all killed)
# CONDITIONS USED: 10 µM unless noted
About 83,000 compounds went through this panel and 20% of them were active in at least one assay; those are over-represented in the sample as a whole. Active and inactive are the calls of the source. Rule for the calls: active = growth percent below 10; inactive = the rest.

Known growth results, listed for orientation:
| COMPOUND | TEST SYSTEM | growth |
| --- | --- | --- |
| COc1ccc2c(N)ncc(C#Cc3cc(C(=O)Nc4ccc(CN5CCN(C)CC5)c(C(F)(F)F)c4)cnc3C)c2c1 | LOX IMVI melanoma | -71.4% (active) |
| COc1ccc2c(c1)cn1c3ccc(O)cc3[nH]c(=O)c21 | LOX IMVI melanoma | 3.95% (active) |
| COC(=O)c1ccc2[nH]c(O)c(C(=Nc3ccc(N(C)C(=O)CN4CCN(C)CC4)cc3)c3ccc(C)cc3)c2c1 | LOX IMVI melanoma | 4.3% (active) |
| Clc1ccc(N/N=C(/c2ccccc2)c2ccccn2)nc1 | LOX IMVI melanoma | 21.5% (inactive) |
| COc1ccc(-c2nc(SCC(C)C)nc(Nc3ccc(C(=O)O)cc3)c2C#N)cc1 | LOX IMVI melanoma | 88% (inactive) |

Read the next record carefully.
Input line: Return reported growth; argument: CCC(C)[C@H](NC(=O)Nc1cc(C(F)(F)F)cc(C(F)(F)F)c1)C(=O)N[C@@H](Cc1cn(C)cn1)C(=O)OC (stereo not given in full)
Output line: -81.2% [100 µM] (active)

----------
# Test system: K-562 leukemia
# PROCEDURE TEXT: NCI-60 one-dose screen, 48 h (100 = growth as untreated, 0 = no growth, -100 = all killed)
# CONDITIONS USED: 10 µM unless noted
# Experimental: Cells are grown in 96 well plates and exposed to the test compound for 48 hours. Compounds are tested at a single concentration, which is 10^-5 M for most compounds. The reported endpoint is percent growth (GI% or GIPRCNT), where numbers from 0 - 100% represent growth inhibition, and numbers from -100% - 0 represent cell death. For example, a value of 40 represents 60% growth inhibition. A value of 0 means no net growth occurred over the course of the experiment. […]
The panel holds about 83,000 compounds, 20% with a hit somewhere; the sample as a whole holds those more often.
API: label(entry) gives true if the entry's growth is strictly smaller than 30%; on equality or larger values it gives false.

For orientation, consider the following solved cases.
| MOLECULE | LABEL |
| --- | --- |
| NC(CSC(c1ccccc1)(c1ccccc1)c1ccccc1)C(=O)NCC(=O)O (stereo unspecified) | false |
| OC(c1ccccc1)(c1ccccc1)C(F)(F)F | false |
| Cc1ccccc1-n1c(C)nc2cc(NC(=O)c3ccc(Cl)cc3)ccc2c1=O | false |
| Cc1ccc(C(=O)Nc2ccc(CN3CCN(C)CC3)c(C(F)(F)F)c2)cc1C#Cc1cnc(N)c2ccc(F)cc12 | true |

# evaluate next
Input line: Take the molecule O=S(=O)(O)CCI and say whether its growth is less than 30%.
Output line: false

----------
# System: NCI-H460 lung
# PROCEDURE TEXT: NCI-60 one-dose screen, 48 h
# CONDITIONS USED: 10 µM unless noted
The panel holds about 83,000 compounds, 20% with a hit somewhere; the sample as a whole holds those more often. The source made the active and inactive calls. The calls were made as follows: active = growth percent below 10; inactive = the rest.
Can you answer with just one of these options? True = active, False = inactive

Input line: State the result this test recorded for Cn1c2c(cc(S(=O)(=O)c3ccccc3)c1=O)CCc1c-2cnn1-c1ccc(Cl)cc1 .
Output line: False

Input line: Now consider CC(Br)c1nc2ccccc2cc1C(N)=O (stereo not given) and answer again.
Output line: False

Input line: Now consider CCn1cnc(C[C@H](NC(=O)[C@@H](NC(=O)Nc2cc(C(F)(F)F)cc(C(F)(F)F)c2)C(C)(C)C)C(=O)OC)c1 and answer again.
Output line: True

Input line: Now consider CCN(CC)C(=O)C1(C)CCCC2(C)c3cc(OC(C)=O)ccc3CCC12 (stereo not given) and answer again.
Output line: False

Input line: Now consider Nc1nc2c(c3cnccc13)C(c1ccc(Cl)c(Cl)c1)Cc1cnccc1-2 (stereo not given) and answer again.
Output line: True

----------
# System: MOLT-4 leukemia
# PROCEDURE TEXT: NCI-60 one-dose screen, 48 h (100 = growth as untreated, 0 = no growth, -100 = all killed)
# CONDITIONS USED: 10 µM unless noted
Compounds without any hit were thinned out: in the full panel of roughly 83,000, 20% have a hit. Activity calls are given as the source filed them. How the source made its calls: active means growth percent below 10; inactive means the rest.
PARAMETER MEASURED: growth

| MOLECULE | growth |
| --- | --- |
| CC(=O)Nc1nc(C)c(C(=O)N/N=C/N2CCOCC2)s1 | 188% (inactive) |
| CCCC(CCC)Oc1ccc(CCCC2=C(O)c3ccccc3C(=O)C2=O)cc1 | 38.1% (inactive) |
| CCn1cc(C(=O)O)c(=O)c2cc(F)c(N3CCN(S(=O)(=O)c4ccc(Cl)cc4)CC3)cc21 | 23.6% (inactive) |
| COC(=O)C(Cc1cnc[nH]1)N1CC(=O)N2[C@@H](c3ccccc3)SC[C@H]2C1=O (stereo not given in full) | 99.7% (inactive) |

Read the next record carefully.
Input line: Return reported growth; argument: Nc1ccc(S(=O)(=O)Nc2cc(F)cc(F)c2)cc1
Output line: 72.7% (inactive)

----------
# System: PC-3 prostate
# PROCEDURE TEXT: NCI-60 one-dose screen, 48 h
# CONDITIONS USED: 10 µM unless noted
About 83,000 compounds went through this panel and 20% of them were active in at least one assay; those are over-represented in the sample as a whole. Active and inactive are the calls of the source. Rule for the calls: active = growth percent below 10; inactive = the rest.
Can you answer with just one of these options? 1 = active, 0 = inactive

| COMPOUND | LABEL |
| --- | --- |
| CC1=C[C@@H]2c3c(c(O)c(O)c4oc5cc(O)cc(O)c5c(=O)c34)[C@@H](c3cc(O)c(O)c4oc5cc(O)cc(O)c5c(=O)c34)[C@@H]2C(C)(C)C1 | 1 |
| Oc1ccc([S+](c2ccc(O)cc2)c2ccc(O)cc2)cc1 | 0 |
| O=C(Oc1ccccc1)c1ccccc1Cl | 0 |
| O=C(Nc1ccc(Cl)cn1)C1(c2ccccc2)CCCCC1 | 0 |
| N#CC1=C(N2CCOCC2)NC2c3ccccc3Sc3ccccc3N2C1=N (configuration not stated) | 0 |

Input line: State the result this test recorded for CCOc1ccc(N(C)c2ccc(/C=C/C3=[N+](C)c4ccccc4C3(C)C)cc2)cc1 .
Output line: 1

Input line: Now consider C/C(CCC(=O)O)=N/Nc1ccc([N+](=O)[O-])cc1 and answer again.
Output line: 0

Input line: Now consider CC(O)CN(CC(C)O)N(CC(C)O)CC(C)O (configuration not stated) and answer again.
Output line: 0

Input line: Now consider CCNc1nnc(COc2ccc(CNC(=O)CCCC/C=C/C(C)C)cc2OC)o1 and answer again.
Output line: 0

Input line: Now consider O=C(Cc1ccccc1[N+](=O)[O-])c1ccc2c(c1)OCO2 and answer again.
Output line: 0

Input line: Now consider COc1ccc(Oc2[nH]n(C3=Nc4ccccc4Sc4ccccc43)c(=O)c2C#N)cc1 and answer again.
Output line: 0

Input line: Now consider CCOc1ccc(/C=N/NC(=O)c2cccc3ccccc23)cc1OCC and answer again.
Output line: 0

Input line: Now consider C/C(=N\Nc1cccc(Cl)n1)c1ccccn1 and answer again.
Output line: 0

Input line: Now consider COC(=O)c1ccc(C(=Nc2ccc(N(C)C(=O)CN3CCN(C)CC3)cc2)c2c(O)[nH]c3ccc(C(=O)OC)cc23)cc1 and answer again.
Output line: 0

Input line: Now consider CC(=O)OCC(=O)[C@@]1(O)[C@H](C)C[C@H]2[C@@H]3C=C(C)C4=Cc5c(cnn5-c5ccc(F)cc5)C[C@]4(C)[C@H]3[C@@H](O)C[C@@]21C and answer again.
Output line: 0

----------
# System: LOX IMVI melanoma
# PROCEDURE TEXT: NCI-60 one-dose screen, 48 h
# CONDITIONS USED: 10 µM unless noted
Compounds without any hit were thinned out: in the full panel of roughly 83,000, 20% have a hit. Active and inactive are the calls of the source. Rule for the calls: active = growth percent below 10; inactive = the rest.
Can you answer with just one of these options? active, inactive

For orientation, consider the following solved cases.
| MOLECULE | TEST SYSTEM | LABEL |
| --- | --- | --- |
| NC(CSC(c1ccccc1)(c1ccccc1)c1ccccc1)C(=O)NCC(=O)O (centres undefined) | LOX IMVI melanoma | inactive |
| N#Cc1ccc(OCc2nc(N)nc(N)c2-c2ccc(Cl)c(Cl)c2)cc1 | LOX IMVI melanoma | inactive |
| CC(=O)OCC1O[C@@H](OC(C)=O)[C@@H](NC(=O)NS(=O)(=O)c2ccccc2)C(OC(C)=O)[C@@H]1OC(C)=O (some centres undefined) | LOX IMVI melanoma | inactive |
| COc1ccc(CNCCCN2C(=O)c3ccc4c5c(ccc(c35)C2=O)C(=O)N(CCCNCc2ccc(OC)c(OC)c2OC)C4=O)c(OC)c1OC | LOX IMVI melanoma | active |
| CSc1nc(N)n2nccc2n1 | LOX IMVI melanoma | inactive |
| CCc1ccc(C(=Nc2ccc(N(C)C(=O)CN3CCN(C)CC3)cc2)c2c(O)[nH]c3ccc(C(=O)OC)cc23)cc1 | LOX IMVI melanoma | active |
| COc1ccc(Cn2cc3c(c2-c2ccccc2)CCc2cnoc2-3)cc1N | LOX IMVI melanoma | inactive |
| COc1ccc(Cn2cc3c(c2-c2ccc(O)cc2)CCc2cnoc2-3)cc1 | LOX IMVI melanoma | inactive |

# evaluate next
Input line: State the result this test recorded for CN1C(=O)C(=Cc2coc3ccc(Br)cc3c2=O)C(=O)N(C)C1=O .
Output line: inactive

Every entry's value here was drawn from PubChem BioAssay (NCI).
